The origin of these recorded values is patent US9828379B2.

- testedTarget: MAGL (Mus musculus, UniProt O35678)
- Sequence (O35678 whole entry): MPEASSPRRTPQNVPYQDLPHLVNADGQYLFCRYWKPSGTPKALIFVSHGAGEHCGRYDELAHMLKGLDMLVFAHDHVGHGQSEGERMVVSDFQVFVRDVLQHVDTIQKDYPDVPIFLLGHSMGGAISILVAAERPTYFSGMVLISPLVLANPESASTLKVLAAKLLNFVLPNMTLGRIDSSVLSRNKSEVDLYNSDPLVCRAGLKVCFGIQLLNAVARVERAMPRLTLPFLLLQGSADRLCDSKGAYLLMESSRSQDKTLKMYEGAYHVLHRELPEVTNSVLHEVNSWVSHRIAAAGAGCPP
- assayDetails: In vitro competitive activity-based protein profiling (Table 2, % inhibition at 1 μM)
- Format: biochemical
- settings: read-out: % Inhibition at 1 μM MAGL
- Experimental: After 30 min, FP—Rh (1.0 μL, 50 μM in DMSO) was added and the mixture was incubated for another 30 min at 37° C. Reactions were quenched with SDS loading buffer (50 μL-4×) and run on SDS-PAGE. Cell lysates were diluted with mock proteomes for use in competitive ABPP experiments.
endpoint: inhibition at 1 µM

{"compound": "O=C(OC(C(F)(F)F)C(F)(F)F)N1CC2CN(Cc3cccc(N4CCC5(CCOC5)C4)c3C(F)(F)F)CC2C1 (stereo not shown)", "valueMeasured": "> 75%"}
{"compound": "O=C(OC(C(F)(F)F)C(F)(F)F)N1CC2CN(Cc3cccc(Cl)c3N3CCC(F)CC3)CC2C1 (stereo not shown)", "valueMeasured": "> 75%"}
{"compound": "O=C(OC(C(F)(F)F)C(F)(F)F)N1CC2CN(C(c3ccc(Cl)cc3)c3ccc(Cl)cc3)CC2C1 (stereo not shown)", "valueMeasured": "25 to 75%"}
{"compound": "CC(C)c1ccc(CN2CC3CN(C(=O)OC(C(F)(F)F)C(F)(F)F)CC3C2)c(N2CCCC2)c1 (stereo not shown)", "valueMeasured": "> 75%"}
{"compound": "CNC(=O)C(OC(=O)N1CC2CN(Cc3ccc(-c4ccccc4)cc3)CC2C1)C(F)(F)F (stereo not shown)", "valueMeasured": "25 to 75%"}
{"compound": "O=C(ON1C(=O)CCC1=O)N1CC2CN(Cc3ccc(N4CCOCC4)cc3Cl)CC2C1 (stereo not shown)", "valueMeasured": "25 to 75%"}
{"compound": "CC(C)c1cc(CN2CC3CN(C(=O)ON4C(=O)CCC4=O)CC3C2)n(C2CCCCC2)n1 (stereo not shown)", "valueMeasured": "25 to 75%"}

====

- testedTarget: MAGL (Mus musculus)
- assayDetails: biochemical
- settings: mouse; in vitro competitive ABPP; read-out: Mouse (IC50 value, nM) MAGL
Entries and their IC50 values follow.

{"compound": "CCn1cc(CN2CC3CN(C(=O)OC(C(F)(F)F)C(F)(F)F)CC3C2)c(C(=O)NCc2ccccc2)n1 (centres unmarked)", "IC50": "< 100 nM"}
{"compound": "O=C(OC(C(F)(F)F)C(F)(F)F)N1CC2CN(Cc3cccc(N4CCOCC4)c3Cl)CC2C1 (centres unmarked)", "IC50": "< 100 nM"}
{"compound": "O=C(OC(C(F)(F)F)C(F)(F)F)N1CC2CN(Cc3c(N4CC5COCC5C4)cccc3C(F)(F)F)CC2C1 (centres unmarked)", "IC50": "100 to 1000 nM"}
{"compound": "CC1COCCN1c1ccc(CN2CC3CN(C(=O)OC(C(F)(F)F)C(F)(F)F)CC3C2)c(F)c1 (centres unmarked)", "IC50": "< 100 nM"}
{"compound": "O=C(OC(C(F)(F)F)C(F)(F)F)N1CC2CN(Cc3ccc(N4CCOCC4)cc3C(F)(F)F)CC2C1 (centres unmarked)", "IC50": "< 100 nM"}
{"compound": "CCn1ncc(CN2CC3CN(C(=O)OC(C(F)(F)F)C(F)(F)F)CC3C2)c1C(=O)NCCc1cccc(Cl)c1 (centres unmarked)", "IC50": "< 100 nM"}
{"compound": "Cc1cccc(-c2cc(CN3CC4CN(C(=O)OC(C(F)(F)F)C(F)(F)F)CC4C3)n(C)n2)c1 (centres unmarked)", "IC50": "< 100 nM"}
{"compound": "CC(C)n1cc(CN2CC3CN(C(=O)OC(C(F)(F)F)C(F)(F)F)CC3C2)c(-c2ccccc2Cl)n1 (centres unmarked)", "IC50": "< 100 nM"}
{"compound": "Cc1c(CN2CC3CN(C(=O)OC(C(F)(F)F)C(F)(F)F)CC3C2)cccc1N1CCN(C)CC1 (centres unmarked)", "IC50": "100 to 1000 nM"}
{"compound": "CC(=O)N1CCN(c2cccc(CN3CC4CN(C(=O)OC(C(F)(F)F)C(F)(F)F)CC4C3)c2C)CC1 (centres unmarked)", "IC50": "< 100 nM"}
{"compound": "O=C(OC(C(F)(F)F)C(F)(F)F)N1CC2CN(Cc3cccc(Cl)c3N3CCC4(CCOC4)C3)CC2C1 (centres unmarked)", "IC50": "< 100 nM"}
{"compound": "O=C(OC(C(F)(F)F)C(F)(F)F)N1CC2CN(Cc3ccc(Cl)cc3N3CCn4ncnc4C3)CC2C1 (centres unmarked)", "IC50": "< 100 nM"}
{"compound": "Cc1cc(CN2CC3CN(C(=O)OC(C(F)(F)F)C(F)(F)F)CC3C2)n(C2CCCCC2)n1 (centres unmarked)", "IC50": "< 100 nM"}
{"compound": "CCn1ncc(CN2CC3CN(C(=O)OC(C(F)(F)F)C(F)(F)F)CC3C2)c1C(=O)N1CCOCC1 (centres unmarked)", "IC50": "100 to 1000 nM"}
{"compound": "O=C(OC(C(F)(F)F)C(F)(F)F)N1CC2CN(Cc3ccc(C(F)(F)F)cc3N3CC4COCC4C3)CC2C1 (centres unmarked)", "IC50": "< 100 nM"}
{"compound": "CC(C)n1cc(CN2CC3CN(C(=O)OC(C(F)(F)F)C(F)(F)F)CC3C2)c(C2CCN(S(C)(=O)=O)CC2)n1 (centres unmarked)", "IC50": "< 100 nM"}
{"compound": "CC(=O)NC1CN(c2ccc(Cl)cc2CN2CC3CN(C(=O)OC(C(F)(F)F)C(F)(F)F)CC3C2)C1 (centres unmarked)", "IC50": "< 100 nM"}
{"compound": "CC1COCCN1c1ccc(CN2CC3CN(C(=O)OC(C(F)(F)F)C(F)(F)F)CC3C2)c(Cl)c1 (centres unmarked)", "IC50": "< 100 nM"}
{"compound": "O=C(OC(C(F)(F)F)C(F)(F)F)N1CC2CN(Cc3ccc(N4CCOCC4)cc3Cl)CC2C1 (centres unmarked)", "IC50": "< 100 nM"}
{"compound": "O=C(OC(C(F)(F)F)C(F)(F)F)N1CC2CN(Cc3cccc(N4CCOCC4)c3C(F)(F)F)CC2C1 (centres unmarked)", "IC50": "< 100 nM"}
{"compound": "Cc1c(CN2CC3CN(C(=O)OC(C(F)(F)F)C(F)(F)F)CC3C2)cccc1N1CCCCC1 (centres unmarked)", "IC50": "< 100 nM"}
{"compound": "O=C(ON1C(=O)CCC1=O)N1CC2CN(Cc3cccc(Cl)c3N3CCC(F)CC3)CC2C1 (centres unmarked)", "IC50": "100 to 1000 nM"}
{"compound": "Cc1c(CN2CC3CN(C(=O)OC(C(F)(F)F)C(F)(F)F)CC3C2)cccc1N1CCOCC1 (centres unmarked)", "IC50": "< 100 nM"}
{"compound": "CC(C)(C)c1cc(CN2CC3CN(C(=O)OC(C(F)(F)F)C(F)(F)F)CC3C2)n(-c2ccccc2Cl)n1 (centres unmarked)", "IC50": "< 100 nM"}
{"compound": "Cn1cc(CN2CC3CN(C(=O)OC(C(F)(F)F)C(F)(F)F)CC3C2)c(-c2ccccc2)n1 (centres unmarked)", "IC50": "< 100 nM"}
{"compound": "O=C(OC(C(F)(F)F)C(F)(F)F)N1CC2CN(Cc3cc(CN4CCCCC4)cc(OC(F)(F)F)c3)CC2C1 (centres unmarked)", "IC50": "100 to 1000 nM"}
{"compound": "CC1COCCN1c1cc(Cl)ccc1CN1CC2CN(C(=O)OC(C(F)(F)F)C(F)(F)F)CC2C1 (centres unmarked)", "IC50": "< 100 nM"}
{"compound": "O=C(OC(C(F)(F)F)C(F)(F)F)N1CC2CN(Cc3ccc(C(=O)N4CCCC4)c(OC(F)(F)F)c3)CC2C1 (centres unmarked)", "IC50": "100 to 1000 nM"}
{"compound": "CC(=O)N1CCN(c2ccc(CN3CC4CN(C(=O)OC(C(F)(F)F)C(F)(F)F)CC4C3)c(F)c2)CC1 (centres unmarked)", "IC50": "100 to 1000 nM"}

====

Entries and their IC50 values follow.
- testedTarget: FAAH (Mus musculus, UniProt O08914)
- Sequence (O08914 whole entry): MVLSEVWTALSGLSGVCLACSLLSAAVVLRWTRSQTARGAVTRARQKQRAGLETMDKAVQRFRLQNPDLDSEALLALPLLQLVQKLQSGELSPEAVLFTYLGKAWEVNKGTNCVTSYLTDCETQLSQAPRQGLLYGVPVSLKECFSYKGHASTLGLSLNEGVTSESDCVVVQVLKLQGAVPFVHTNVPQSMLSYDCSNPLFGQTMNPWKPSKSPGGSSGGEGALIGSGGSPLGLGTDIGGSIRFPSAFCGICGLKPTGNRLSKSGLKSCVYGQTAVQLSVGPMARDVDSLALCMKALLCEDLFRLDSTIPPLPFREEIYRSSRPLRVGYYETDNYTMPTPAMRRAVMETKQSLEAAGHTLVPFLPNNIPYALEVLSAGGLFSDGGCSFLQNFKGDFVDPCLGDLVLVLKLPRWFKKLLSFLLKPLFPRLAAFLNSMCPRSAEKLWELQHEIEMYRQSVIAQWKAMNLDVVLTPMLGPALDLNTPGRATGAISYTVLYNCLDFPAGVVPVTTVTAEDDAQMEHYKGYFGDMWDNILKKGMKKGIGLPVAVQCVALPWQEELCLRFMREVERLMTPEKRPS
- assayDetails: biochemical
- settings: in vitro competitive ABPP

{"compound": "CC(C)(C)c1cc(CN2CC3CN(C(=O)OC(C(F)(F)F)C(F)(F)F)CC3C2)n(-c2ccccc2Cl)n1 (stereo not drawn)", "IC50": "> 10000 nM"}
{"compound": "O=C(OC(C(F)(F)F)C(F)(F)F)N1CC2CN(Cc3ccc(Cl)cc3N3Cc4cccnc4C3)CC2C1 (stereo not drawn)", "IC50": "1000 to 10000 nM"}
{"compound": "CCn1cc(CN2CC3CN(C(=O)OC(C(F)(F)F)C(F)(F)F)CC3C2)c(-c2cccc(N3CCOCC3)c2)n1 (stereo not drawn)", "IC50": "1000 to 10000 nM"}
{"compound": "CC(=O)NC1CCN(c2cccc(CN3CC4CN(C(=O)OC(C(F)(F)F)C(F)(F)F)CC4C3)c2C)CC1 (stereo not drawn)", "IC50": "1000 to 10000 nM"}
{"compound": "O=C(OC(C(F)(F)F)C(F)(F)F)N1CC2CN(Cc3ccc(N4CCCCC4)cc3C(F)F)CC2C1 (stereo not drawn)", "IC50": "1000 to 10000 nM"}
{"compound": "O=C(OC(C(F)(F)F)C(F)(F)F)N1CC2CN(Cc3cccc(Cl)c3N3CCC4(CCOC4)C3)CC2C1 (stereo not drawn)", "IC50": "1000 to 10000 nM"}
{"compound": "CS(=O)(=O)N1CC2(CCN(c3ccccc3CN3CC4CN(C(=O)OC(C(F)(F)F)C(F)(F)F)CC4C3)C2)C1 (stereo not drawn)", "IC50": "1000 to 10000 nM"}
{"compound": "CCn1cc(CN2CC3CN(C(=O)OC(C(F)(F)F)C(F)(F)F)CC3C2)c(-c2ccccc2N2CCOCC2)n1 (stereo not drawn)", "IC50": "> 10000 nM"}
{"compound": "Cc1cccc(CN2CC3CN(C(=O)OC(C(F)(F)F)C(F)(F)F)CC3C2)c1N1CCOCC1 (stereo not drawn)", "IC50": "1000 to 10000 nM"}
{"compound": "CC(C)(C)c1cc(CN2CC3CN(C(=O)OC(C(F)(F)F)C(F)(F)F)CC3C2)n(C2CCOCC2)n1 (stereo not drawn)", "IC50": "> 10000 nM"}
{"compound": "CCN1CCN(c2c(C)cccc2CN2CC3CN(C(=O)OC(C(F)(F)F)C(F)(F)F)CC3C2)CC1 (stereo not drawn)", "IC50": "> 10000 nM"}
{"compound": "O=C(OC(C(F)(F)F)C(F)(F)F)N1CC2CN(Cc3cc(CN4CCOCC4)cc(OC(F)(F)F)c3)CC2C1 (stereo not drawn)", "IC50": "1000 to 10000 nM"}
{"compound": "O=C(OC(C(F)(F)F)C(F)(F)F)N1CC2CN(Cc3ccc(N4CCOCC4)cc3Cl)CC2C1 (stereo not drawn)", "IC50": "100 to 1000 nM"}
{"compound": "CC1COCCN1c1ccc(CN2CC3CN(C(=O)ON4C(=O)CCC4=O)CC3C2)c(Cl)c1 (stereo not drawn)", "IC50": "1000 to 10000 nM"}
{"compound": "CC(=O)N1CCN(c2cc(Cl)ccc2CN2CC3CN(C(=O)OC(C(F)(F)F)C(F)(F)F)CC3C2)CC1 (stereo not drawn)", "IC50": "1000 to 10000 nM"}
